B1: H2-Kb / B14 (parent)
chain 1: GEQVEQRPPHLSVREGDSAVIICTYTDPNSYYFFWYKQEPGAGLQLLMKVFSSTEINEGQGFTVLLNKKDKQLSLNLTAAHPGDSAVYFCAVSARGNMGYKLTFGTGTSLLVDP
chain 2: GGIITQTPKFLIGQEGQKLTLKCQQNFNHDTMYWYRQDSGKGLRLIYYSITENDLQKGDLSEGYDASREKKSSFSLTVTSAQKNEMAVFLCASSMGQGASDYTFGSGTRLLVI
chain 3: not shown
chain 4: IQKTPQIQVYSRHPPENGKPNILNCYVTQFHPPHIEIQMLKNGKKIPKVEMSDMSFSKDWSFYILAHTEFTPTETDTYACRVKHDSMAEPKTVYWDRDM
chain 5: SIINFEKL

variants of: B1; test: % of reporter cells activated (NFAT-GFP), raw; conditions: with B14; scale: % of reporter cells activated; also: test concentration or dose not given here
parameter: ratio to parent

// solved cases for ratio to parent follow
   mutant_code  experimental_value
0  chain 5 I2N                   1
1  chain 5 K7M               0.787
2  chain 5 F5V                1.17
3  chain 5 L8E               0.516
4  chain 5 I2A               0.778
5  chain 5 I3E                1.28

I = chain 5 L8K
II = chain 5 S1R
III = chain 5 S1F
In: Would you mind ranking these variants by ascending ratio to parent? Show the ranking through the labels, in the order asked for.
Out: I, II, III
(I: 1.24, II: 2.04, III: 3.07)
